# measured-target: porcine pancreatic lipase (Sus scrofa)
parameter: IC50

compound: Oc1cc(O)c2c(c1)O[C@H](c1ccc(O)c(O)c1)[C@@H](O)C2 [compound 9, (+)-catechin]
IC50: > 20000 nM

compound: COc1cc(C(=O)O[C@@H]2Cc3c(O)cc(O)cc3O[C@@H]2c2ccc(O)c(O)c2)cc(O)c1O [compound 4]
IC50: 680 nM

Prompt: Notebook entry, porcine pancreatic lipase (Sus scrofa) assay: IC50 of O=C(O[C@@H]1Cc2c(O)cc(O)cc2O[C@@H]1c1cc(O)c(O)c(O)c1)c1cc(O)c(O)c(O)c1 [compound 6, (−)-epigallocatechin 3-O-gallate] = ?
Completion: 349 nM

Prompt: Same lookup for O=C(O[C@@H]1Cc2c(O)cc(O)cc2O[C@H]1c1cc(O)c(O)c(O)c1)c1cc(O)c(O)c(O)c1 [compound 12, (−)-gallocatechin 3-O-gallate] , please.
Completion: 437 nM

* * *

System: porcine pancreatic lipase (Sus scrofa, UniProt P00591) | Read-out: IC50
All answers are understood in nM, so give the number only.

Known results for molecules:
molecule: O=C(Oc1cc(O)cc2c1C[C@@H](OC(=O)c1cc(O)c(O)c(O)c1)[C@@H](c1cc(O)c(O)c(O)c1)O2)c1cc(O)c(O)c(O)c1 [compound 7, (−)-epigallocatechin 3,5-di-O-gallate]
measurement-units: nM
numeric-result: 98
--
molecule: O=C(O[C@@H]1Cc2c(O)cc3c(c2O[C@@H]1c1cc(O)c(O)c(O)c1)C1(O)C(=O)O[C@H]([C@@H](O)CO)C1(O)O3)c1cc(O)c(O)c(O)c1 (stereo partly drawn) [compound 15]
measurement-units: nM
numeric-result: 791
--
molecule: O=C(O[C@@H]1Cc2c(O)cc(O)cc2O[C@H]1c1ccc(O)c(O)c1)c1cc(O)c(O)c(O)c1 [compound 10, (−)-catechin 3-O-gallate]
measurement-units: nM
numeric-result: 543
--
molecule: O=C(Oc1cc(O)cc2c1C[C@H](OC(=O)c1cc(O)c(O)c(O)c1)[C@@H](c1cc(O)c(O)c(O)c1)O2)c1cc(O)c(O)c(O)c1 [compound 13, (−)-gallocatechin 3,5-di-O-gallate]
measurement-units: nM
numeric-result: 213
--
molecule: O=C1O[C@H]([C@@H](O)CO)C2(O)Oc3cc(O)c4c(c3C12O)O[C@H](c1cc(O)c(O)c(O)c1)[C@H](O)C4 (stereo partly drawn) [compound 14, 8-C-ascorbyl(−)-epigallocatechin]
measurement-units: nM
numeric-result: 646

Next molecule, please.
Prompt: Which IC50 is reported for this molecule? O=C(/C=C/c1ccc(O)cc1)O[C@@H]1Cc2c(O)cc(O)cc2O[C@@H]1c1cc(O)c(O)c(O)c1 [compound 8, (−)-epigallocatechin 3-O-p-coumaroate]
Completion: 885

* * *

# measured-target: porcine pancreatic lipase (Sus scrofa)
# Construct: purchased Sigma
# Sequence (P00591 1-450): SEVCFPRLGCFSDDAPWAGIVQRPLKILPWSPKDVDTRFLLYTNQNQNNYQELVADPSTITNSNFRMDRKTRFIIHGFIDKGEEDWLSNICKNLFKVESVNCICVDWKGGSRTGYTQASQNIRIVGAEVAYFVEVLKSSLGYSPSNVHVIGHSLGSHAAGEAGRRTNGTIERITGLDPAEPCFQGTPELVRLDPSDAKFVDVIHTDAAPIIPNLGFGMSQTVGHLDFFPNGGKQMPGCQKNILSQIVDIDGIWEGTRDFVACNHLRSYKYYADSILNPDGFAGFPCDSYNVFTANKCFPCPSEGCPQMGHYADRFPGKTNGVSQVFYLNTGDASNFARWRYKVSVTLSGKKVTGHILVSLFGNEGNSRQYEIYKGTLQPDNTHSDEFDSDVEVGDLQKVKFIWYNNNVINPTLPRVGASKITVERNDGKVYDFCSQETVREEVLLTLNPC
# measurement-protocol: Lipase inhibitory activity assay (4-MUO fluorescent substrate)
# Type: biochemical
# condition: porcine pancreatic lipase, substrate 4-MUO, 25° C., 30 minutes, pH 8.0
parameter: IC50

Known results for molecules:
molecule: Oc1cc(O)c2c(c1)O[C@H](c1ccc(O)c(O)c1)[C@H](O)C2 [compound 2, (−)-epicatechin]
measured-target: porcine pancreatic lipase (Sus scrofa)
parameter: IC50
result: > 20 µM
--
molecule: Oc1cc(O)c2c(c1)O[C@H](c1cc(O)c(O)c(O)c1)[C@@H](O)C2 [compound 11, (+)-gallocatechin]
measured-target: porcine pancreatic lipase (Sus scrofa)
parameter: IC50
result: > 20 µM

Next molecule, please.
Prompt: Which IC50 is reported for this molecule? Oc1cc(O)c2c(c1)O[C@H](c1cc(O)c(O)c(O)c1)[C@H](O)C2 [compound 5, (−)-epigallocatechin]
Completion: > 20 µM
